# Assay Name: Cytotoxicity, MTT assay in CEM-T4 cells
# Type: cell-based
# Settings: human; cytotoxicity values; CEM-T4 cells; read-out: IC50 (cytotoxicity)

- Compound: "C=C(C)[C@@H]1CC[C@]2(COP(=O)(OCC)OCC)CC[C@]3(C)C(CCC4[C@@]5(C)CC[C@H](OC(=O)CC(C)(C)CC(=O)O)C(C)(C)C5CC[C@]43C)C12 (stereo partly drawn)"
  IC50 at 7 days, µM: 19.7
- Compound: "C=C(C)[C@@H]1CC[C@]2(COP(=O)(OCC)OCC)CC[C@]3(C)C(CCC4[C@@]5(C)CC[C@H](OC(=O)CC(C)(C)C(=O)O)C(C)(C)C5CC[C@]43C)C12 (stereo partly drawn)"
  IC50 at 7 days, µM: 25.4
- Compound: "C=C(C)[C@@H]1CC[C@]2(COP(=O)(OCC)OCC)CC[C@]3(C)C(CCC4[C@@]5(C)CC[C@H](OC(=O)CCC(C)(C)C(=O)O)C(C)(C)C5CC[C@]43C)C12 (stereo partly drawn)"
  IC50 at 7 days, µM: 15.1
